assay: Cytotoxicity against human HEK293T cells assessed as reduction in cell viability measured after 3 days by CellTiterGlo Luminescent assay; assay type: toxicity, cell-based, HEK-293T; conditions: time 3 day
Parameter CC50 at 72 h: see the listing below.

Query: Dear colleague, I am looking for the recorded CC50 at 72 h of the following molecule: "CN(C)c1ncn(-c2cc(F)c(COc3ccc(OS(=O)(=O)F)cc3)c(F)c2)n1"
Result: > 40 µM

Next molecule, please.
Query: Dear colleague, I am looking for the recorded CC50 at 72 h of the following molecule: "O=S(=O)(F)Oc1ccc(OCc2c(F)cc(-n3cnnc3)cc2F)cc1"
Result: > 40 µM

----------
test: Plasma concentration in mouse at 20 mg/kg, po measured after 8 hrs; assay type: ADME, organism-based
property-name: concentration at 8 h (ng/mL)
Report as a plain number; the unit ng/mL is understood.

Query: Dear colleague, I am looking for the recorded concentration at 8 h of the following compound: "CS(=O)(=O)Nc1ncn(-c2cc(F)c(COc3ccc(OS(=O)(=O)F)cc3)c(F)c2)n1"
Result: 2120
